experiment: Anticancer human tumor 997537-175-T-J1-PDC patient-derived colon adenocarcinoma cell line growth inhibition [POLQ]; details: 997537-175-T-J1-PDC complex spheroid viability, combination with POLQ inhibitors; second compound 10 µM; first compound 1 µM; active = viability on the fitted dose curve at most 10% of control; inactive = the rest
Your reply should match one of these outcome classes. yes (1) (active), no (0) (inactive)

Data request: What call does the record list for Nc1ccn(C2OC(CO)C(O)C2(F)F)c(=O)n1 (stereo not drawn) + COC1C(OC(N)=O)C(O)C(Oc2ccc3c(O)c(NC(=O)c4ccc(O)c(CC=C(C)C)c4)c(=O)oc3c2C)OC1(C)C ?
Data returned: no (0)

Data request: What call does the record list for CCc1c2c(nc3ccc(O)cc13)-c1cc3c(c(=O)n1C2)COC(=O)[C@]3(O)CC + Cc1cccc(N(C)C(=O)C2C(O)CCN2c2nc(C)cc(C(F)(F)F)c2C#N)c1 ?
Data returned: yes (1)

Data request: What call does the record list for CC1COCCN1c1cc(C2(S(C)(=N)=O)CC2)nc(-c2ccnc3[nH]ccc23)n1 (stereo not drawn) + Cc1cccc(N(C)C(=O)C2C(O)CCN2c2nc(C)cc(C(F)(F)F)c2C#N)c1 ?
Data returned: no (0)

====

Answer each item with its documented viability, T/C.
assay: Anticancer human tumor 997537-175-T-J1-PDC cell line growth inhibition [POLQ]; settings: 997537-175-T-J1-PDC complex spheroid viability, combination with POLQ inhibitors; second compound 10 µM; first compound 0.316 µM; active compounds read low;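 note: luminescence signal used as a surrogate for viable cells; spheroids exposed to drugs for seven days before readout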
Express the result in % but write the number alone.

Data request: Return the recorded viability, T/C value; entry: CC1COCCN1c1cc(C2(O)CC3CCC(C2)O3)c2cnn(-c3ccn[nH]3)c2n1 (configuration not stated) + Nc1ccc(C#CCN(C(=O)Cc2ncc(C(F)(F)F)cc2C(F)(F)F)c2ccc(F)cc2)nn1
Data returned: 55.3

Data request: Return the recorded viability, T/C value; entry: CCCS(=O)(=O)Nc1ccc(F)c(C(=O)c2c[nH]c3ncc(-c4ccc(Cl)cc4)cc23)c1F + Nc1ccc(C#CCN(C(=O)Cc2ncc(C(F)(F)F)cc2C(F)(F)F)c2ccc(F)cc2)nn1
Data returned: 94

Data request: Return the recorded viability, T/C value; entry: COc1cc(C2c3cc4c(cc3C(OC3OC5COC(C)OC5C(O)C3O)C3COC(=O)C23)OCO4)cc(OC)c1O (configuration not stated) + Nc1ccc(C#CCN(C(=O)Cc2ncc(C(F)(F)F)cc2C(F)(F)F)c2ccc(F)cc2)nn1
Data returned: 99.5

Data request: Return the recorded viability, T/C value; entry: CCc1cc2c(N3CCc4c(cc(Cn5ccnc5)cc4-c4cn(C)nc4C(F)(F)F)C3=O)cc(C)nc2c(OC)n1 + Cc1cccc(N(C)C(=O)C2C(O)CCN2c2nc(C)cc(C(F)(F)F)c2C#N)c1
Data returned: 105

Data request: Return the recorded viability, T/C value; entry: O=c1[nH]cc(F)c(=O)[nH]1 + Nc1ccc(C#CCN(C(=O)Cc2ncc(C(F)(F)F)cc2C(F)(F)F)c2ccc(F)cc2)nn1
Data returned: 103

Data request: Return the recorded viability, T/C value; entry: COc1ccc([C@@H](O)c2cc(-c3ncnc4cc(N5CCOCC5)ccc34)c(F)cc2Cl)nn1 + Nc1ccc(C#CCN(C(=O)Cc2ncc(C(F)(F)F)cc2C(F)(F)F)c2ccc(F)cc2)nn1
Data returned: 95.7

Data request: Return the recorded viability, T/C value; entry: C=CC(=O)N1CCN(c2nc(=O)n(-c3c(C)ccnc3C(C)C)c3nc(-c4c(O)cccc4F)c(F)cc23)C(C)C1 (configuration not stated) + COC1C(OC(N)=O)C(O)C(Oc2ccc3c(O)c(NC(=O)c4ccc(O)c(CC=C(C)C)c4)c(=O)oc3c2C)OC1(C)C
Data returned: 93
